The entries below come with measured protein stability index values attached.
B1: ZNF232 (parent)
chain: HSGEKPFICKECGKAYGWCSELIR

Variants of: B1
experimental_details: protein stability index of a GFP-peptide fusion (GPS, HEK-293T) (PSI 1-6); higher = more stable;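 note: lentivirally expressed fusions sorted by FACS into six bins by GFP to DsRed ratio, PSI derived from sequencing read proportions per bin multiplied by bin number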
condition_notes: c terminus: a fixed tail appended
Reply with the value as a number alone.

These solved cases illustrate the format of a correct answer.
mutant: C9P
protein stability index: 2.23
--
mutant: L22D
protein stability index: 2.3
--
mutant: K10A
protein stability index: 1.68
--
mutant: C12K
protein stability index: 2.33
--
mutant: R24W
protein stability index: 2.09

Which protein stability index is listed for K10Q ?
2.01

Also, I8V please.
1.58
